test: Apparent volume of distribution in Sprague-Dawley rat at 1 mg/kg, iv incubated for 24 hrs by LC/MS/MS method; assay type: ADME, organism-based; conditions: in vivo, read-out: Vd(app)
readout: Vd

Some compounds with known Vd results, for comparison:
compound: C#Cc1cccc(Nc2ncnc3cc(O[C@H]4CCOC4)c(NC(=O)/C=C/CNC(C)C)cc23)c1
Vd: 7.4 L/kg

compound: CC(C)NC/C=C/C(=O)Nc1cc2c(Nc3ccc(F)c(Cl)c3)ncnc2cc1O[C@H]1CCOC1
Vd: 6.5 L/kg

compound: CN(C)C/C=C/C(=O)Nc1cc2c(Nc3ccc(F)c(Cl)c3)ncnc2cc1O[C@H]1CCOC1 [AFATINIB]
Vd: 10.8 L/kg

Record request: Vd value, item `O=C(/C=C/CNC1CC1)Nc1cc2c(Nc3ccc(F)c(Cl)c3)ncnc2cc1O[C@H]1CCOC1`
3.82 L/kg

Which Vd value belongs to `C#Cc1cccc(Nc2ncnc3cc(O[C@H]4CCOC4)c(NC(=O)/C=C/CNC4CC4)cc23)c1` ?
2.2 L/kg
